Recorded values, source paper PMC9482650.

Experimental Target: LNX1_1, Q8TBB1
Sequence (Q8TBB1 261-371): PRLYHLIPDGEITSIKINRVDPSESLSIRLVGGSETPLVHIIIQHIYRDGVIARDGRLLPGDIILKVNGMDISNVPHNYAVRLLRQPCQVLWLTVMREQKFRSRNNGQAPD
Experiment Description: holdup assay
Design: key: below the threshold = too weak to quantify, mostly under pKd 3.1 to 4
Conditions Used: plain residues with an end cap or a label only (N-terminal biotin on a linker: ahx)
Parameter Measured: pKd

## Input State the recorded pKd for this entry: HTHSYIETHV [CNKSR2, Q8WXI2]
## Output 3.85

## Input State the recorded pKd for this entry: TEAKLTETNA [MYO18A, Q92614]
## Output below the threshold

## Input State the recorded pKd for this entry: TESNLQTSSC [CGN, Q9P2M7]
## Output 3.47

## Input State the recorded pKd for this entry: TQKFRASTAL [FRMPD1, Q5SYB0]
## Output below the threshold

## Input State the recorded pKd for this entry: QNTDDVQTSF [ACE2, Q9BYF1]
## Output below the threshold

Others:
## Input State the recorded pKd for this entry: QDEKVKESYV [ABCA1, O95477]
## Output 4.38

## Input State the recorded pKd for this entry: APSRKLNTEI [TIAM1, Q13009]
## Output below the threshold

## Input State the recorded pKd for this entry: QPRTWLQSPV [RTKN, Q9BST9]
## Output below the threshold

## Input State the recorded pKd for this entry: EKQAKGDTEF [CACYBP, Q9HB71]
## Output below the threshold
